The reported numbers originate from the supplement of paper PMC10567573.

B1: NEK8 (parent)
chain: YTFGSNQHGQLGTNTRRGSRAPCK

- Variants of: B1
- procedure-text: protein stability index of a GFP-peptide fusion (GPS, HEK-293T) (PSI 1-6); higher = more stable;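 further: lentivirally expressed fusions sorted by FACS into six bins by GFP to DsRed ratio, PSI derived from sequencing read proportions per bin multiplied by bin number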
- conditions: c terminus: a fixed tail appended
readout-label: protein stability index
Keep the answer to the number alone.

G4Q :: 4.04
A21N :: 4.1
G9R :: 3.94
H8P :: 3.97
R16N :: 4.02
H8A :: 3.98
G9N :: 3.98
G18K :: 4.05
G18T :: 4.08
R16D :: 4.05

Lookup: What protein stability index value was documented for this variant, F3V ?
Found: 3.98

Lookup: Okay, and R17Q ?
Found: 4.02

Lookup: Okay, and G9E ?
Found: 3.98

Lookup: Okay, and L11C ?
Found: 4.02
